# TGT: Sigma non-opioid intracellular receptor 1 (Rattus norvegicus)
# Sequence (Q9R0C9 whole entry): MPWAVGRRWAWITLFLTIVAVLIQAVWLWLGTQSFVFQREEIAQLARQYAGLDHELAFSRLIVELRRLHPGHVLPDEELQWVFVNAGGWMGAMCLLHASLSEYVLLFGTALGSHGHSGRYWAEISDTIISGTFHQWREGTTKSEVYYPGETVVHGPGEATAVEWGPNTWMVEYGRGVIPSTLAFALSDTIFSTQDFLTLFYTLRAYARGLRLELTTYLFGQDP
# ASSAY: Inhibition of [3H]- N-allylnormetazocine ([3H]NANM) binding to sigma receptor
QUANTITY_MEASURED: IC50 (µM)
Numbers only, in µM.

For each entry beneath this line, provide reported IC50.
1. CC1NCCc2ccsc21 (stereo unspecified)
2. Cc1ccc(C2NCCc3ccccc32)cc1 (stereo unspecified)
3. C=CCN1CCc2ccccc2C1C1CCCCC1 (stereo unspecified)
4. c1ccc(C2(N3CCCCC3)CCCCC2)cc1
5. c1ccc(C2CNCc3ccccc32)cc1 (stereo unspecified)
6. c1csc(C2(N3CCCCC3)CCCCC2)c1
7. CCN1CCc2ccccc2C1c1ccccc1 (stereo unspecified)
8. CC(C)C1NCCc2ccsc21 (stereo unspecified)

11
5.6
3.1
0.53
4.2
0.24
1.3
3.8

The following molecules each have a reported value; give each one's IC50.
1. c1ccc(C2Cc3ccccc3CN2)cc1 (stereo unspecified)
2. C=CCN1CCc2ccsc2C1c1ccccc1 (stereo unspecified)
3. C=CCN1CCc2ccccc2C1c1ccccc1 (stereo unspecified)
4. c1ccc(-c2cccc3c2CNCC3)cc1
5. CN1CCc2ccccc2C1c1ccccc1 (stereo unspecified)
6. CC(C)C1NCCc2ccccc21 (stereo unspecified)
7. CC(C)CC1NCCc2ccccc21 (stereo unspecified)

2.6
20
1.3
2.7
2.9
2.5
5

###

Provide the recorded ED50 for the entries that follow.
# TGT: UniProtKB Q00961
# ASSAY: Compound was tested for induction of phencyclidine (PCP) like stereotyped behavior
# Format: functional
Numbers only, in mg/kg.

COMPOUND	QUANTITY_MEASURED	MEASURED_RESULT
c1ccc(C2NCCc3ccccc32)cc1 (stereo unspecified)	ED50	25
c1ccc(-c2cccc3c2CNCC3)cc1	ED50	28
c1ccc(CC2NCCc3ccccc32)cc1 (stereo unspecified)	ED50	26
c1ccc(C2(N3CCCCC3)CCCCC2)cc1	ED50	4.7

Quick one: give me ED50 for each item below, same order please.
1. Fc1ccc(C2NCCc3ccccc32)cc1 (stereo unspecified)
2. c1ccc(C2Cc3ccccc3CN2)cc1 (stereo unspecified)

[38, 19]

###

# TGT: Glutamate receptor ionotropic, NMDA 2C (Rattus norvegicus)
# Sequence (Q00961 whole entry): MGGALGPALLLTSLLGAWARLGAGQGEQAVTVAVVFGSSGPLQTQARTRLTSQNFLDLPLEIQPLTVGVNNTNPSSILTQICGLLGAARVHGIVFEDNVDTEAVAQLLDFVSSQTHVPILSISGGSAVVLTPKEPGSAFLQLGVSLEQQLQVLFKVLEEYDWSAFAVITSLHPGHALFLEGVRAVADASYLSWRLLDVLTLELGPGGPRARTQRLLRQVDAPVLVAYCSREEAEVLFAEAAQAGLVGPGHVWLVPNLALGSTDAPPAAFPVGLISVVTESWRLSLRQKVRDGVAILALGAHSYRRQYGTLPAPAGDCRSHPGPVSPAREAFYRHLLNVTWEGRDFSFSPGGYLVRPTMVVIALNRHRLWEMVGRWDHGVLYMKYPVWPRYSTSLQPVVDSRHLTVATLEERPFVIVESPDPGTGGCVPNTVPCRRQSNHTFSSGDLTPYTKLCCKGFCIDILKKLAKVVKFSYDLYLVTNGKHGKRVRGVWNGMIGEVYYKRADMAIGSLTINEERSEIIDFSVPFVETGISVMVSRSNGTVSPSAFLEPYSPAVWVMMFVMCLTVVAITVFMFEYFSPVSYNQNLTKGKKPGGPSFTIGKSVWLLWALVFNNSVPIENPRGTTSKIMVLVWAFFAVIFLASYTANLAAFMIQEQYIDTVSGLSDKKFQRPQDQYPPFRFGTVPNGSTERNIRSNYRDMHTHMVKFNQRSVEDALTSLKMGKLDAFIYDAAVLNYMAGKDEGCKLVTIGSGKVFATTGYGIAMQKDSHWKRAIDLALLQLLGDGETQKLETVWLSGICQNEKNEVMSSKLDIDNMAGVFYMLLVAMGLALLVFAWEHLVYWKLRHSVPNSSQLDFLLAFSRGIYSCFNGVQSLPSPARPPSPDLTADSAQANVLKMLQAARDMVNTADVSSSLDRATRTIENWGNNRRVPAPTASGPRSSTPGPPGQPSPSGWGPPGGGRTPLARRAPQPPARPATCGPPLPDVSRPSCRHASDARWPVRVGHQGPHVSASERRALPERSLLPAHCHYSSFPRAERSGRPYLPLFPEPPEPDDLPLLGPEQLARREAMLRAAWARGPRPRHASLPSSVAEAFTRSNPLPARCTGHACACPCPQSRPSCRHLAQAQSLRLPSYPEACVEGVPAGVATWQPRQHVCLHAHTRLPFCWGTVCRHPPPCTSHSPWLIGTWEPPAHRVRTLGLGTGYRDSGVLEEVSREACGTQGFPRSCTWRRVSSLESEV
# ASSAY: Inhibition of [3H]1-[1-(2-thienyl) piperidine ([3H]TCP) binding to PCP receptor
Please provide measured IC50 for the entries that follow.

Check out these entries, answers already filled in.
COMPOUND	MEASURED_RESULT
COc1ccc(C2NCCc3ccccc32)cc1 (stereo not given)	2.5 µM
COc1ccccc1-c1cccc2c1CNCC2	0.9 µM
c1csc(C2NCCc3ccccc32)c1 (stereo not given)	7.6 µM
CC1NCCc2ccsc21 (stereo not given)	> 30 µM
CCN1CCc2ccsc2C1C(C)C (stereo not given)	12 µM

Give IC50 for all compounds that follow.
1. c1ccc(C2NCCc3ccsc32)cc1 (stereo not given)
2. C=CCN1CCc2ccsc2C1C(C)C (stereo not given)
3. CC(C)C1c2sccc2CCN1C (stereo not given)
4. CCOCCN1CCc2ccccc2C1c1ccccc1 (stereo not given)
5. CC(C)C1NCCc2ccsc21 (stereo not given)

8.8 µM
8.5 µM
17 µM
8.2 µM
17 µM

###

# TGT: Sigma non-opioid intracellular receptor 1 (Rattus norvegicus)
# ASSAY: Inhibition of [3H]- N-allylnormetazocine ([3H]NANM) binding to sigma receptor
QUANTITY_MEASURED: log10 of IC50 (log10 of the value in µM)
Scale: decimal log of IC50, IC50 in µM.

Use the examples below as a reference point.
COMPOUND	TGT	log10 of IC50
c1ccc(CN2CCc3ccccc3C2)cc1	Sigma non-opioid intracellular receptor 1 (Rattus norvegicus)	0.89
c1ccc2c(c1)CCNC2c1ccc2ccccc2c1 (stereo unspecified)	Sigma non-opioid intracellular receptor 1 (Rattus norvegicus)	1.00
C=CCN1CC[C@]2(C)c3ccccc3CC1[C@@H]2C	Sigma non-opioid intracellular receptor 1 (Rattus norvegicus)	-1.30

Field: log10 of IC50. Fill in for each record below.
1. CC1Cc2ccccc2CN1C (stereo unspecified)
2. COc1ccc(C2NCCc3ccccc32)cc1 (stereo unspecified)
3. CC(C)C1c2sccc2CCN1C (stereo unspecified)
4. CC1Cc2ccccc2C(C)N1 (stereo unspecified)
5. CC1Cc2ccccc2CN1Cc1ccccc1 (stereo unspecified)
6. c1ccc(CC2NCCc3ccccc32)cc1 (stereo unspecified)
7. CCOCCN1CCc2ccccc2C1c1ccccc1 (stereo unspecified)

0.41
0.34
0.89
1.18
0.51
-0.37
0.73

###

# TGT: Sigma non-opioid intracellular receptor 1 (Rattus norvegicus)
# ASSAY: Inhibition of [3H]- N-allylnormetazocine ([3H]NANM) binding to sigma receptor
IC50 less than 3 µM is Y; IC50 greater than or equal to 3 µM is N.

Use the examples below as a reference point.
MOLECULE	QUALITATIVE_LABEL
Fc1ccc(C2NCCc3ccccc32)cc1 (stereo unspecified)	Y
CN1CCc2ccccc2C1	Y
C=CCN1C(C)Cc2ccccc2C1C (stereo unspecified)	Y
c1csc(C2NCCc3ccccc32)c1 (stereo unspecified)	N
C=CCN1CCc2ccccc2C1c1ccc2ccccc2c1 (stereo unspecified)	N
c1ccc(C2NCCc3ccsc32)cc1 (stereo unspecified)	N
COc1ccccc1-c1cccc2c1CNCC2	Y
Clc1ccc(C2NCCc3ccccc32)cc1 (stereo unspecified)	N

Would you kindly verify if IC50 of c1ccc2c(c1)CCNC2C1CCCCC1 (stereo unspecified) is strictly less than 3 µM?
N

Dear reviewer, please state whether C=CCN1CCc2ccsc2C1C(C)C (stereo unspecified) has IC50 strictly beneath 3 µM.
N

Is 3 µM strictly greater than the molecule's reported IC50? molecule: c1ccc(C2NCc3ccccc32)cc1 (stereo unspecified)
N
